target of assay: human recombinant adrenergic α2B receptor (Homo sapiens)
Construct: expressed in transfected cells; host or cells: CHO-K1
Sequence (P18089 whole entry): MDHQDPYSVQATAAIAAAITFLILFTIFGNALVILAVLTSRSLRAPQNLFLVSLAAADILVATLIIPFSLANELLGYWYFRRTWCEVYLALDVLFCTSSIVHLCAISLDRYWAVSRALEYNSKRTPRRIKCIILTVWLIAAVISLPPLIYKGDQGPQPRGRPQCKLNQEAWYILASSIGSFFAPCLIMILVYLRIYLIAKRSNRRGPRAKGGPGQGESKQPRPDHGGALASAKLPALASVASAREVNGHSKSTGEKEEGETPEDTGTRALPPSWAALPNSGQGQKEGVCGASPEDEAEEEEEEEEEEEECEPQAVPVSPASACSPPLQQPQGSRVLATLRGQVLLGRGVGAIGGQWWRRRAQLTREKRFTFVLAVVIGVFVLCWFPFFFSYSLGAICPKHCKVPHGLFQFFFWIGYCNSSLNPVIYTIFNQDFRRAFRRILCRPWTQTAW
assay notes: Radioligand binding, adrenergic α2B ([3H]Rauwolscine)
details: 0.1 μM compound; read-out: Percentage inhibition of ligand binding, Adrenergic α2B
readout kind: inhibition at 0.1 µM (%)

Examples with their reported inhibition at 0.1 µM follow.
{"columns": ["compound", "u", "inhibition at 0.1 µM"],
 "data": [
  ["Cc1cc(Br)c2c(c1)c1c(n2CCc2ccc(C)nc2)CCN(C)C1 [II-39]", "%", -14],
  ["Cc1ccc2c(c1)c1c(n2C2=C(c3ccc(F)cc3)CCC2)CCN(C)C1 [compound 301]", "%", 84],
  ["C/C(=C\\n1c2c(c3cc(C)ccc31)CN(C)CC2)c1ccc2c(ccn2C)c1 [compound 283]", "%", 89],
  ["Cc1ccc2c(c1)c1c(n2CC(C)(C)c2ccncc2)CCN(C)C1 [compound 260]", "%", 92],
  ["Cc1ccc2c(c1)c1c(n2C2=C(c3ccc(C)nc3)CCC2)CCN(C)C1 [II-82]", "%", 48]
]}

(1) Cc1ccc2c(c1)c1c(n2CC(C)(OC(=O)C(C)(C)C)c2cccnc2)CCN(C)C1 (single isomer, unassigned) [II-16b]
(2) Cc1ccc(CCn2c3c(c4c(Cl)c(Cl)ccc42)CN(C)CC3)cn1 [compound 319]
-- ask Returns: the argument ( 1 or 2 ) having the larger inhibition at 0.1 µM. # respond with the chosen item's label
-- reply 1

Where these numbers come from: patent US8791132B2
